molecular target: MD-2 (myeloid differentiation protein 2) (Homo sapiens); test: intrinsic fluorescence quenching titration; type: binding
Sequence (Q9Y6Y9 19-160): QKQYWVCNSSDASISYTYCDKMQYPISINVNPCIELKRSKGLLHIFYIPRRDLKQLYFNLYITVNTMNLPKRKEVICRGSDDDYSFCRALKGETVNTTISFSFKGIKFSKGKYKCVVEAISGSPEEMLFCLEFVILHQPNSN
Readout name: pKd
Just so you know, pKd here is -log10 of the concentration in molar units; reply with that number alone.

Req: Identify the reported pKd for the following entry. CN[C@@H](C)Cc1ccccc1
Resp: 5.17
